Source of measurements: PubChem BioAssay (EPA / NIEHS)

- Read-out: Monocyte Chemoattractant Protein-1 (MCP1), CCL2 (gene 6347)
- Test: BSK_SAg_MCP1: BioMAP Diversity Plus: SAg Assay for Monocyte Chemoattractant Protein-1 (MCP1) Biomarker Activity (AID 2283090)
- Experimental Context: primary human HUVEC with PBMC; actives raise or lower the signal
Activity calls are given as the source filed them. Rule for the calls: active = hit-call score of the fitted dose curve at least 0.9, where 1 is the maximum; inactive = score below 0.9.
Quantity Name: outcome

Here's what some known entries look like.
> print(dat)
                                   molecule  obs.value
1  O=C(O)C(F)(F)C(F)(F)C(F)(F)C(F)(F)C(F)(F)C(F)(F)C(F)(F)C(F)(F)C(F)(F)C(F)(F)C(F)(F)C(F)(F)F   inactive
2  C#C[C@]1(O)CC[C@H]2[C@@H]3CCc4cc(OC)ccc4[C@H]3CC[C@@]21C   inactive
3  FC(F)(F)C(F)(F)C(F)(F)C(F)(F)C(F)(F)C(F)(F)C(F)(F)Br   inactive
4  CCO[Si](CCC(F)(F)C(F)(F)C(F)(F)C(F)(F)C(F)(F)C(F)(F)F)(OCC)OCC   inactive

We now examine a further molecule.
Incoming: Note down outcome recorded for CC(CCl)OP(=O)(OC(C)CCl)OC(C)CCl (stereo not given)
Outgoing: inactive

====

- Tested Target: Aryl hydrocarbon receptor (Homo sapiens) (UniProt P35869)
- Sequence (P35869 whole entry, looked up): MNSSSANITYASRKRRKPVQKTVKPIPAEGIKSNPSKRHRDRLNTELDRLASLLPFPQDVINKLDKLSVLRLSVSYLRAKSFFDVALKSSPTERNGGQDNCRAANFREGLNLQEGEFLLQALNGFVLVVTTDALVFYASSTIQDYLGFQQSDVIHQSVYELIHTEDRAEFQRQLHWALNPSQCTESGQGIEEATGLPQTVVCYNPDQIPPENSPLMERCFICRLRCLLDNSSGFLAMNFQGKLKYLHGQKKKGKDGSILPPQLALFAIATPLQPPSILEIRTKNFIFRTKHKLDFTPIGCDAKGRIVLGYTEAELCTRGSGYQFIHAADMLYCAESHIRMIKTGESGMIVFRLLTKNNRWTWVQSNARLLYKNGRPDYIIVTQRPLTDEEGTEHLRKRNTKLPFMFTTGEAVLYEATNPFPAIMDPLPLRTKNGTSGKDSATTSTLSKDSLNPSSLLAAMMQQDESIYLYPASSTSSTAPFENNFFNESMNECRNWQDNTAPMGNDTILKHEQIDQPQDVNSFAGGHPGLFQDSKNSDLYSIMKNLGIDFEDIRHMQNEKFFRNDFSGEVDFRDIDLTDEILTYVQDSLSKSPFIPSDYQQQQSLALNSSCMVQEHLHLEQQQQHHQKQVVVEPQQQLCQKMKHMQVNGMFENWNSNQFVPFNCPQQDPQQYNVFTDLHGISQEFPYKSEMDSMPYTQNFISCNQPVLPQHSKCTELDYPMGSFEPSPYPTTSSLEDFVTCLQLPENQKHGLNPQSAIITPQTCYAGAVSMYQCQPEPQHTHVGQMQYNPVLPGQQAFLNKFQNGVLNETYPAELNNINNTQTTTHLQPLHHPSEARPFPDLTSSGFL
- Test: ATG_Ahr_CIS: Attagene CIS-FACTORIAL HepG2 Assay for human Aryl Hydrocarbon Receptor (Ahr) (AID 2282930)
- Experimental Context: HepG2 AhR cis-factorial reporter transcription; actives raise or lower the signal
Calls of active or inactive are those of the source. The calls were made as follows: active = hit-call score of the fitted dose curve at least 0.9, where 1 is the maximum; inactive = score below 0.9.
Respond only with the outcome that fits, drawn from label 1 = active, label 0 = inactive

> print(dat)
        compound                             tested.target  answer.label
1  CCCCNc1ccccc1  Aryl hydrocarbon receptor (Homo sapiens) (UniProt P35869)       label 0

Incoming: Hi team, can someone confirm the assay call for CCCCOc1ccc(N)cc1 ?
Outgoing: label 0

Incoming: Which outcome was entered for the compound CC(CCl)OP(=O)(OC(C)CCl)OC(C)CCl (configuration not stated) in this test?
Outgoing: label 0

Incoming: Which outcome was entered for the compound FC(F)(F)C(F)(F)C(F)(F)N(C(F)(F)C(F)(F)C(F)(F)F)C(F)(F)C(F)(F)C(F)(F)F in this test?
Outgoing: label 0

Incoming: I would be grateful if you could indicate the recorded call for CS(C)(=O)=O .
Outgoing: label 0

Incoming: Can you look up the reported call for COC(OC(C)=O)c1ccccc1 (configuration not stated) for me?
Outgoing: label 0

Incoming: Kindly provide the recorded test outcome for the following compound: O=C(O)C(F)(F)C(F)(F)C(F)(F)C(F)(F)C(F)(F)C(F)(F)C(F)(F)C(F)(F)C(F)(F)C(F)(F)C(F)(F)C(F)(F)C(F)(F)F
Outgoing: label 0

Incoming: Status in this test for FC(F)(F)C(F)(F)C(F)(F)C(F)(F)C(F)(F)C(F)(F)C(F)(F)C(F)(F)CCS ?
Outgoing: label 0

Incoming: For this compound, state the assay outcome: CC(Cc1ccc(O)c(O)c1)C(C)Cc1ccc(O)c(O)c1 (configuration not stated)
Outgoing: label 0

Incoming: Query: recorded result category for O=C(O)C=C(C(F)(F)F)C(F)(F)F in this test
Outgoing: label 0

Incoming: // outcome(item) with item = FC(F)(Br)C(F)(F)C(F)(F)C(F)(F)C(F)(F)C(F)(F)Br
Outgoing: label 0

Incoming: // param item: CC(=O)Nc1ccc(N=Nc2cc(C)ccc2O)cc1 ; yields the recorded call
Outgoing: label 1
